# Tested on: SETVI (Foxtail, Green)
# Test name: Preemergence herbicidal evaluation
# Type: in vivo, Setaria viridis
# Test parameters: rate 0.1250 kg/ha; rated 4-5 weeks after treatment
Measurement label: Preemergence herbicidal rating SETVI
Response field accepts a number only; no unit should be typed.

GET /value?item= CCOP(=O)(CN1C(=O)CSC1=Nc1cc(-n2c(=O)cc(C(F)(F)F)n(C)c2=O)c(F)cc1Cl)OCC &field=Preemergence herbicidal rating SETVI returns 0.0

GET /value?item= CCOC(=O)[C@H](C)N1C(=O)CSC1=Nc1cc(-n2c(=O)cc(C(F)(F)F)n(C)c2=O)c(F)cc1Cl &field=Preemergence herbicidal rating SETVI returns 9.0

GET /value?item= Cn1c(C(F)(F)F)cc(=O)n(-c2cc(N=C3SCC(=O)N3C3CCOC3=O)c(Cl)cc2F)c1=O (stereo not drawn) &field=Preemergence herbicidal rating SETVI returns 9.0

GET /value?item= Cn1c(C(F)(F)F)cc(=O)n(-c2cc(N=C3SCC(=O)N3CC(=O)OCC3CC3)c(Cl)cc2F)c1=O &field=Preemergence herbicidal rating SETVI returns 0.0

GET /value?item= Cn1c(C(F)(F)F)cc(=O)n(-c2cc(N=C3SCC(=O)N3CCC(=O)O)c(Cl)cc2F)c1=O &field=Preemergence herbicidal rating SETVI returns 7.0

GET /value?item= Cn1c(C(F)(F)F)cc(=O)n(-c2cc(N=C3SCC(=O)N3CC(=O)OCC#N)c(Cl)cc2F)c1=O &field=Preemergence herbicidal rating SETVI returns 9.0

GET /value?item= O=C(O)CC1SC(=Nc2cc(N3C(=O)C4=C(CCCC4)C3=O)c(F)cc2Cl)N(CC(=O)O)C1=O (stereo not drawn) &field=Preemergence herbicidal rating SETVI returns 0.0

GET /value?item= CCOC(=O)CN1C(=O)C[S+]([O-])/C1=N/c1cc(-n2c(=O)cc(C(F)(F)F)n(C)c2=O)c(F)cc1Cl (stereo not drawn) &field=Preemergence herbicidal rating SETVI returns 0.0

GET /value?item= CCOC(=O)CN1C(=O)C(SC)SC1=Nc1cc(-n2c(=O)cc(C(F)(F)F)n(C)c2=O)c(F)cc1Cl (stereo not drawn) &field=Preemergence herbicidal rating SETVI returns 9.0

###

# Tested on: CASOB (Sicklepod)
# Test name: Preemergence herbicidal evaluation
# Type: in vivo, Cassia obtusifolia
# Test parameters: preemergence, 0.1250 kg/ha, rated 4-5 weeks after treatment, 0-9 scale
Measurement label: CASOB rating

GET /value?item= C=CCN1C(=O)C(CC(=O)NOC)SC1=Nc1cc(-n2c(=O)cc(C(F)(F)F)n(C)c2=O)c(F)cc1Cl (centres unmarked) [Compound 85] &field=CASOB rating returns 0.0

GET /value?item= COC(=O)C1(N2C(=O)CSC2=Nc2cc(-n3c(=O)cc(C(F)(F)F)n(C)c3=O)c(F)cc2Cl)CCCCC1 [Compound 81] &field=CASOB rating returns 0.0

GET /value?item= C=CCN1C(=O)C(CC(=O)OC(C)C(=O)OCC)SC1=Nc1cc(-n2c(=O)ccn(C)c2=O)c(F)cc1Cl (centres unmarked) [Compound 94] &field=CASOB rating returns 0.0

GET /value?item= CN1C(=O)C(CC(=O)NS(C)(=O)=O)SC1=Nc1cc(-n2c(=O)cc(C(F)(F)F)n(C)c2=O)c(F)cc1Cl (centres unmarked) [Compound 97] &field=CASOB rating returns 0.0

GET /value?item= C=CCOC(=O)CN1C(=O)CSC1=Nc1cc(-n2c(=O)cc(C(F)(F)F)n(C)c2=O)c(F)cc1Cl [Compound 106] &field=CASOB rating returns 4.0
